# measured_target: human CD33 N20Y (human, UniProt P20138 18-364)
# Sequence (P20138 18-364 N20Y limits assumed): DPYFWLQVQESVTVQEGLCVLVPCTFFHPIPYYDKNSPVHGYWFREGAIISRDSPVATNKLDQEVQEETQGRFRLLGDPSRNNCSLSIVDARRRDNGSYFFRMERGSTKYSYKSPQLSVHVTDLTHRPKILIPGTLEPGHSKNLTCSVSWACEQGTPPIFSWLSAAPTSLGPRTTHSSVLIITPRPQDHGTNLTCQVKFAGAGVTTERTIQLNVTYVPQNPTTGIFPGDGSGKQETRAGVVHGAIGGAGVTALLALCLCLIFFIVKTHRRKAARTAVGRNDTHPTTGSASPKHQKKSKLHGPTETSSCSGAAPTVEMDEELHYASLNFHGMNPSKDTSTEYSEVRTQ
# experiment_description: flow cytometry, mutant on cells, IgG
Record form. Attribute: Mean % WT Binding. Fill in for each entry.
Don't forget the unit after the value.

Task: Answer with the recorded Mean % WT Binding for the binder listed here: Refmab #1 (antibody, human IgG1, V domains shown, Tested in IgG format; human IgG1 (Absolute Antibody hP67.6, Cat. No. Ab00283-10.0); also called hP67.6) VH: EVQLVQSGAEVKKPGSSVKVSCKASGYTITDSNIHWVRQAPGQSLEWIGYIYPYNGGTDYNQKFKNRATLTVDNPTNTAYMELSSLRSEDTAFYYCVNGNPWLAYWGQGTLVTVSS VL: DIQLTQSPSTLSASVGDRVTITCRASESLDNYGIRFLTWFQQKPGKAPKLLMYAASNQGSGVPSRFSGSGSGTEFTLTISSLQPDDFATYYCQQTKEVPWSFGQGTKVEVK
Output: 0.4 % WT binding

Task: Answer with the recorded Mean % WT Binding for the binder listed here: Refmab #3 (antibody, human IgG1, V domains shown, Tested in IgG format; human IgG1 Fc silent (PG-LALA)) VH: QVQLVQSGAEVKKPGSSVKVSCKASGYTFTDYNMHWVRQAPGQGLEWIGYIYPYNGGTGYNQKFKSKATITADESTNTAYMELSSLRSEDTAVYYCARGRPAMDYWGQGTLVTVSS VL: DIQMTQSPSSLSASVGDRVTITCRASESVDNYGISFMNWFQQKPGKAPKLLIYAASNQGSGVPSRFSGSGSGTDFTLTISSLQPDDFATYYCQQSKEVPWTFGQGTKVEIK
Output: 0.6 % WT binding

Task: Answer with the recorded Mean % WT Binding for the binder listed here: Refmab #4 (antibody, human IgG1, V domains shown, Tested in IgG format; human IgG1 Fc silent (PG-LALA)) VH: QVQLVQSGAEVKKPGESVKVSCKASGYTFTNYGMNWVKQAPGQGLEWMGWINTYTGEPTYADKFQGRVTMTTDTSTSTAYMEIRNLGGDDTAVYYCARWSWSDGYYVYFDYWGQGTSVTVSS VL: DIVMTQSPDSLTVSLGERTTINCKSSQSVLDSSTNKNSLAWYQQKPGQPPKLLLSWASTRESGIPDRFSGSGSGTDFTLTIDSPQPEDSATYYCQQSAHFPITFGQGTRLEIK
Output: 25.7 % WT binding

Task: Answer with the recorded Mean % WT Binding for the binder listed here: Refmab #2 (antibody, human IgG1, V domains shown, Tested in IgG format; human IgG1 Fc silent (PG-LALA)) VH: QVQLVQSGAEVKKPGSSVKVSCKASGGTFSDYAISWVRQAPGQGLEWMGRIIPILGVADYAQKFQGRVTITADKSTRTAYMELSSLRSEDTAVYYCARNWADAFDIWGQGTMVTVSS VL: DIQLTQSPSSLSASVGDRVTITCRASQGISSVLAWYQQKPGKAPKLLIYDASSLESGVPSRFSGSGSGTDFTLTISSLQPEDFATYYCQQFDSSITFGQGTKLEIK
Output: 34.7 % WT binding
